Biological target: human SCD1 (Homo sapiens (Human), UniProt O00767)
Sequence (O00767 whole entry): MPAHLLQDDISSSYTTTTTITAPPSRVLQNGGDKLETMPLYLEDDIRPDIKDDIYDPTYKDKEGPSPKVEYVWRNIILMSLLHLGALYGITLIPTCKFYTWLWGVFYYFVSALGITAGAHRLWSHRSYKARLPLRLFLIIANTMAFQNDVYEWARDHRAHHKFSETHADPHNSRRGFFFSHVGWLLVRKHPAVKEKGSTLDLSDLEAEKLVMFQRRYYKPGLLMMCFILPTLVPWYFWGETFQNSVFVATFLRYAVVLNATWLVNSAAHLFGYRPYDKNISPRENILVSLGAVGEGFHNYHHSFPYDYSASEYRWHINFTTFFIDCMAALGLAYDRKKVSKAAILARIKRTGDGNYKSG
Assay: Yeast growth assay, strain expressing human SCD1 as the sole desaturase (reduced growth as surrogate for SCD inhibition)
Settings: yeast with OLE1 deleted expressing human SCD1 from a plasmid; growth read as OD600 after 40 h at 30° C.; top drug concentration 33.3 μM
// reported pIC50 for each item listed
Interpret pIC50 as the negative base-10 log of the concentration measured in mol/L.

In the examples that follow, each entry is paired with its recorded pIC50.
structure_smiles_string: O=C(c1cc(-c2ccncn2)on1)N1CC(c2ccccc2)C1
pIC50: 6.49

structure_smiles_string: O=C(Nc1cnn(Cc2ccccc2)c1)c1cc(-c2cncs2)on1
pIC50: 6.59

structure_smiles_string: O=C(Nc1cnn(Cc2ccccc2)c1)c1cc(-c2cnsc2)on1
pIC50: 4.96

Consider the additional compound presented here.
If you can, please state the reported pIC50 value of O=C(Nc1cnn(Cc2ccccc2F)c1)c1cc(-c2ccco2)on1 .
6.44
